- target.or.system: T1, Cynomolgus Monkey VSIG4-L-His (cynomolgus monkey)
- T1 construct: ECD with His tag; also called cyVSIG4-L; cyno VSIG4-L-His
- T1 chain: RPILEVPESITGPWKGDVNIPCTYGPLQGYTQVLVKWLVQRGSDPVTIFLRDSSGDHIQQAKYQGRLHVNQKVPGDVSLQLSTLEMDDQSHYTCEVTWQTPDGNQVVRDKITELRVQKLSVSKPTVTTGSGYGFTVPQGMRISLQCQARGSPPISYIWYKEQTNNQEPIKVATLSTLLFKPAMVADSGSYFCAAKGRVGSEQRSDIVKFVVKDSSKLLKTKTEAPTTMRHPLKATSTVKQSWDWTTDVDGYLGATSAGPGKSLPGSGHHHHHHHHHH
- run.description: BLI, IgG on AHC sensor, antigen 100 nM
Exercise: for every item that follows, state its recorded KD relative to parental chimera.
Report the figure along with its unit, number first.

[
  {
    "binder": "h12A12.B humanized IgG4 (S228P) kappa (antibody, V domains shown) VH: QVQMVQSGAEVKKPGASVKVSCKASGYTFTNYWMHWVRQAPGQGLEWMGYINPSTGYTDYNQKFQGRVTMTADKSTSTAYMELSSLRSEDTAVYYCIRGSDYYGRDYWGQGTTVTVSS VL: DIQMTQSPSSLSASVGDRVTITCQASQDISNYLNWYQQKPGKALKLLIYYTSRLHTGVPSRFSGSGSGTDYTFTISSLQPEDIATYYCRQGNTLPWTFGGGTKLEIKR",
    "value.reported": "0.7 fold"
  },
  {
    "binder": "h14D12.F humanized IgG4 (S228P) kappa (antibody, V domains shown) VH: QIQLVQSGAEVKKPGASVKVSCKASGYTFTNYGMNWVRQAPGQGLEWMGLINTYTGEPTYADKFQGRVTMTLDTSTSTAYMELSSLRSEDTAVYYCARERIYGYLHYFDYWGQGTTVTVSS VL: DVQMTQSPSSLSASVGDRVTITCRASQSVDYDGDSYMNWYQQKPGKAPKLLIYAASNLESGVPSRFSGSGSGTDFTLTISSLQPEDFATYYCQQSNEDPRTFGGGTKLEIKR",
    "value.reported": "1 fold"
  },
  {
    "binder": "h12A12.C humanized IgG4 (S228P) kappa (antibody, V domains shown) VH: QVQMVQSGSELKKPGASVKVSCKASGYTFTNYWMHWVRQAPGQGLEWIGYINPSTGYTDYNQGFTGRFVLSADKSSSTAYLQISSLKAEDTAVYYCIRGSDYYGRDYWGQGTTVTVSS VL: DIQMTQSPSSLSASVGDRVTITCQASQDISNYLNWYQQKPGKALKLLIYYTSRLHTGVPSRFSGSGSGTDYTFTISSLQPEDIATYYCRQGNTLPWTFGGGTKLEIKR",
    "value.reported": "0.5 fold"
  },
  {
    "binder": "h13H11.B humanized IgG4 (S228P) kappa (antibody, V domains shown) VH: QIQLVQSGAEVKKPGASVKVSCKASGYTFENFGMNWVRQAPGQRLEWMGWINTYTGEATYADKFQGRVTFTLDTSASTAYMELSSLRSEDTAVYFCARDGGFRHFDVWGQGTTVTVSS VL: ETQVTQSPSSLSASVGDRVTITCQTSTDIDDDMNWYQQKPGKAPKLLISEGNTLRPGVPSRFSSSGYGTDFTFTISSLQPEDIATYYCLQSDNLPLTFGGGTKLEIKR",
    "value.reported": "0.9 fold"
  }
]

Exercise: Please look up its KD relative to parental chimera: 14D12 mouse/human chimeric IgG4 (S228P) kappa (antibody, V domains shown) VH: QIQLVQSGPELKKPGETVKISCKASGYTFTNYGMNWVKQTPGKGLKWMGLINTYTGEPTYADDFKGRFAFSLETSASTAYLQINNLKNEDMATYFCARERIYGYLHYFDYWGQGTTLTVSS VL: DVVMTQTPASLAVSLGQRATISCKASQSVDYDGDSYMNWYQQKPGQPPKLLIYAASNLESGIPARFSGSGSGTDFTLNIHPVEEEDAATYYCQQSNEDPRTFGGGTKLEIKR
Solution: 1 fold
